# assay target: T1, recombinant uPAR-Biotin (human, UniProt Q03405 23-305, biotin)
# T1 construct: May be one of the bought proteins (uPAR-His or uPAR-Fc) after biotinylation
# T1 sequence (Q03405 23-305): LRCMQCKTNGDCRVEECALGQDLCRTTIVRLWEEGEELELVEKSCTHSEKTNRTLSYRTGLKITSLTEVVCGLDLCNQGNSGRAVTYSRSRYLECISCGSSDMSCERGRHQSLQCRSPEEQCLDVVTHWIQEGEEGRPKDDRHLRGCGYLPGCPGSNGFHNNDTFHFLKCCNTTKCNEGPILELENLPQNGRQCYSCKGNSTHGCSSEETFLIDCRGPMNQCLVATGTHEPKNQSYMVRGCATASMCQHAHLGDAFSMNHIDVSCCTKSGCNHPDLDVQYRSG
# protocol notes: BLI; BLItz; streptavidin biosensors coated with 16.7 μg/mL recombinant uPAR-Biotin; 400nM, 200nM and 100nM of VH, VH-Fc, DbTE, association 2 min; dissociation in DPBS 4 min
# measurement conditions: both partners purified
Each entry below carries its reported koff.
quantity measured: koff (s⁻¹)

VH 3 (VHH, Human single VH domain antibody (not a camelid VHH); Monomeric by SEC; also called clone 3; anti-uPAR VH 3; source: E.coli TopF expression system, purified on Ni-NTA columns) VHH: EVQLVESGGGLVQPGGSLRLSCAASGFTFSRYWMSWVRQAPGKALEWIGEINHSGSTNYNPSLKSLVTISRDNSKNTLYLQMNSLRAEDTATYYCARSLVPALSYYYYYGMDVWGQGTTVTVSS : 0.0014
VH-Fc 115 (Fc fusion, human, VH cloned into the pcDNA-IgG1 Fc vector; source: Expi293, transiently transfected, purified by protein A resin; not shown: Fc (human IgG1), C-terminal, kept) VH: EVQLVESGGGLVQPGGSLRLSCKGSGFTFGDYAIGWVRQAPGQRLEWIGWINTNSGSPKYAQGFTGRFTISRDNSKNTLYLQMNSLRAEDTAVYYCATDVVVPWGQGSQVTVSS : 0.0024
VH-Fc 3 (Fc fusion, human, VH 3 domain, as m1; VH cloned into the pcDNA-IgG1 Fc vector; source: Expi293, transiently transfected, purified by protein A resin; not shown: Fc (human IgG1), C-terminal, kept) VH: EVQLVESGGGLVQPGGSLRLSCAASGFTFSRYWMSWVRQAPGKALEWIGEINHSGSTNYNPSLKSLVTISRDNSKNTLYLQMNSLRAEDTATYYCARSLVPALSYYYYYGMDVWGQGTTVTVSS : 0.0012
VH 115 (VHH, Human single VH domain antibody (not a camelid VHH); source: E.coli TopF expression system, purified on Ni-NTA columns) VHH: EVQLVESGGGLVQPGGSLRLSCKGSGFTFGDYAIGWVRQAPGQRLEWIGWINTNSGSPKYAQGFTGRFTISRDNSKNTLYLQMNSLRAEDTAVYYCATDVVVPWGQGSQVTVSS : 3.6e-05

src = paper PMC10593477
